Hey, just so you know, these numbers are from PubChem BioAssay.

Test system: Lefty1
Assay: Lefty1 protein binding to printed compounds – biochemical, small-molecule microarray, 635/667 nm fluorescence, primary screen (AID 1139)
Conditions: fluorescence 635/667, higher = more signal
I'd appreciate it if you could supply composite z-score values for the items below.
Reply with just the number.

Observed composite z-score on Lefty1, entry COC(=O)[C@@]1(Cc2ccccc2)[C@H]2c3cc(C(=O)N(C)C)n(Cc4ccc(OC)c(OC)c4)c3C[C@H]2CN1C(=O)c1ccccc1 , equals 0.0922

Value (composite z-score, Lefty1) for record COc1ccc(C(O)C2C=CC3C(=O)N(C)C(=O)C3N2N(c2ccccc2)c2ccccc2)c2ccccc12 (configuration not stated) = 1.09

Lefty1 assay, molecule CCCCC(=C=CC[C@@H](O)c1cccc(OCCO)c1)C[C@@H](O)c1ccccn1 , recorded composite z-score = 1.2

Log: Lefty1, molecule C[C@H]1C2[C@H](Cc3ccccc3)NC(=O)[C@]23C(=O)NCC(=O)N2CCC[C@H]2C(=O)NC/C=C/CCC/C=C/C3[C@@H]2O[C@]12C (some centres not stated) , composite z-score = -0.0374

// assay Lefty1, entry COCC(=C=CC[C@H](O)c1cccc(OCCO)c1)CCO , composite z-score value = 1.48

Item CC(C)(C)OC(=O)CC[C@]1(C(N)=O)N=C(c2ccc(OCCCO)cc2)O[C@H]1c1ccccc1 ; assay system Lefty1; composite z-score reported as -0.388

COc1cc2c(cc1O)C(c1cccs1)N(Cc1cccc(OC(F)(F)F)c1)CC2 (configuration not stated) tested on Lefty1 gave composite z-score: -0.196

* * *

Test system: Plasmodium falciparum Sir2 (PF13_0152, Sir2A)
Test: Plasmodium falciparum Sir2A binding compounds – biochemical, small-molecule microarray, 635 nm fluorescence, primary screen (AID 1098);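 note: score merges spot fluorescence intensity with its signal-to-noise ratio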
Conditions: fluorescence 635 nm, higher = more signal
readout_kind: composite z-score

composite z-score for Plasmodium falciparum Sir2 (PF13_0152, Sir2A) with input C#CCN1[C@H](/C=C/C2CC2)[C@H](Cc2ccccc2)OC(=O)[C@@H]1Cc1ccccc1 equals 1.16

Tested on Plasmodium falciparum Sir2 (PF13_0152, Sir2A): COCC(=C=CC[C@H](O)c1cccc(OCCO)c1)CCO . Observed composite z-score: 0.34

# value of composite z-score, Plasmodium falciparum Sir2 (PF13_0152, Sir2A), item CC(=O)n1cc(C(O)C2C=CC3C(=O)NC(=O)C3N2Nc2ccccn2)c2ccccc21 (centres undefined) = 0.452

Tested on Plasmodium falciparum Sir2 (PF13_0152, Sir2A), the item C=C(CCCC)/C(=C/C[C@H](OC(C)=O)c1ccc(OCCO)cc1)c1cnc2ccccc2c1 showed composite z-score equal to 0.641

Entry COc1cc2c(cc1O)C=[N+](Cc1cc3c(cc1Br)OCO3)CC2 , Plasmodium falciparum Sir2 (PF13_0152, Sir2A) data, composite z-score value: 1.73

Record for COCCOC(=O)N1C(=O)[C@@]2(c3cc(C#CCCO)ccc31)[C@H](c1ccc(OCCO)cc1)N1[C@H](c3ccccc3)[C@H](c3ccccc3)OC(=O)[C@H]1[C@@H]2C(N)=O under target or system Plasmodium falciparum Sir2 (PF13_0152, Sir2A): composite z-score reported as 0.923

GET /values?item= CC(C)OC(=O)C=C1C[C@@H](c2cccc(Cl)c2)O[C@@H](c2cccc(Cl)c2)O1 &system= Plasmodium falciparum Sir2 (PF13_0152, Sir2A) returns composite z-score: 1.31

Assay Plasmodium falciparum Sir2 (PF13_0152, Sir2A), sample CCCCC(O)C1C=CC2C(=O)N(C)C(=O)C2N1N1CCCCC1 (centres undefined) , composite z-score read: 0.933

# lookup: CCOc1cc(C(O)C2C=CC3C(=O)N(c4ccccc4)C(=O)C3N2Nc2ccc(C(C)C)cc2)ccc1O (centres undefined) on Plasmodium falciparum Sir2 (PF13_0152, Sir2A), composite z-score = 1.5

The recorded composite z-score with Plasmodium falciparum Sir2 (PF13_0152, Sir2A) for C[N+](C)(C)CCCC[C@@H]1NC(=O)[C@H]2C[C@@H](C(=O)NCCCCCCNC(=O)CS)[C@@H](c3ccc(O)cc3)N2C1=O was -0.783

Bench note, Plasmodium falciparum Sir2 (PF13_0152, Sir2A): O=C1C2C=CC(C(O)COCc3ccccc3)N(Nc3ccc([N+](=O)[O-])cc3)C2C(=O)N1c1ccccc1 (centres undefined) , composite z-score reads 1.06

Assay Plasmodium falciparum Sir2 (PF13_0152, Sir2A), sample COc1ccc(C(O)C2C=CC3C(=O)N(C)C(=O)C3N2N(c2ccccc2)c2ccccc2)c2ccccc12 (centres undefined) , composite z-score read: 1.42

GET /values?item= CO[C@H]1O[C@H](CO)[C@@H](OC(=O)Nc2ccccc2)[C@@H]2OC(=O)[C@@H](Cc3ccc4ccccc4c3)C/C=C/C[C@H](Cc3ccc4ccccc4c3)C(=O)O[C@@H]12 &system= Plasmodium falciparum Sir2 (PF13_0152, Sir2A) returns composite z-score: 1.08

Here O=C1NC(=O)C2C1C=CC(C(O)C=Cc1ccc([N+](=O)[O-])cc1)N2Nc1ccc(Cl)cc1Cl (centres undefined) was tested on Plasmodium falciparum Sir2 (PF13_0152, Sir2A), and its composite z-score came to 0.373
